Each record here notes measured GI50.
targetUnderTest: Ba/F3-FL-EGFR (L858R/T790M/C797S) (Homo sapiens, UniProt P00533, T790M/C797S/L858R, cells depend on it)
Sequence (P00533 whole entry T790M/C797S/L858R): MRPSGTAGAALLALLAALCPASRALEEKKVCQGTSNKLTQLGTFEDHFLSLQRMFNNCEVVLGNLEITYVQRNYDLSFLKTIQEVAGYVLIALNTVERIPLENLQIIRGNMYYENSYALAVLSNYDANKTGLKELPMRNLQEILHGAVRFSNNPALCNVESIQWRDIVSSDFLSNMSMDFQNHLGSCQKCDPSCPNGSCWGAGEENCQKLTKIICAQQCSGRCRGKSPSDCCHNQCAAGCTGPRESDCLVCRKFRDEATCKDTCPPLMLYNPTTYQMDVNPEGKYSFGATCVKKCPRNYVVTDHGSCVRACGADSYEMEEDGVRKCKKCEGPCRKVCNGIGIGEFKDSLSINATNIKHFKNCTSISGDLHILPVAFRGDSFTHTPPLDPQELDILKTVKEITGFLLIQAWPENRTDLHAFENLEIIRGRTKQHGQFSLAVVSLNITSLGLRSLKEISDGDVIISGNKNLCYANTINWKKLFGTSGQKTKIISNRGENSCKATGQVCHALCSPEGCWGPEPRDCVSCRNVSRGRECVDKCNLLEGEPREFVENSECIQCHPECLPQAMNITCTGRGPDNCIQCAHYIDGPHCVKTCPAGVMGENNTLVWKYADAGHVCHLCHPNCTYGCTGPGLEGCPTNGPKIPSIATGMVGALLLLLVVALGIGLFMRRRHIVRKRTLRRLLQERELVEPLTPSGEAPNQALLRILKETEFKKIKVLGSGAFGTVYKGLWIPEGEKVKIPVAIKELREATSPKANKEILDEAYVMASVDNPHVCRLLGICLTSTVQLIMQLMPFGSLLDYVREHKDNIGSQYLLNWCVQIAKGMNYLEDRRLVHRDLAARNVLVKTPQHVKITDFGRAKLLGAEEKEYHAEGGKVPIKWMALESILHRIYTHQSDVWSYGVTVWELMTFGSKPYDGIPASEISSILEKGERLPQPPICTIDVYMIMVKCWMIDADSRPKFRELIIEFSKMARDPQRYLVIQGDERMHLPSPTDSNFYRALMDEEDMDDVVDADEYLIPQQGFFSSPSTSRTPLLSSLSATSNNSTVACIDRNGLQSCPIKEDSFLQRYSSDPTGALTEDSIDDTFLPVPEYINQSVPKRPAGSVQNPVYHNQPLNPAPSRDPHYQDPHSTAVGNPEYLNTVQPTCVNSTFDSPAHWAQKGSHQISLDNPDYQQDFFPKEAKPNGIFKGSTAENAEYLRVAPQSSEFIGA
assayOverview: Cell proliferation inhibition, CellTiter-Glo
Format: cell-based
particulars: 72 hours, read-out: Cell half-maximal inhibition concentration IC50 Ba/F3-FL-EGFR (L858R/T790M/C797S)
Numeric only. Scale: nM

Cc1cc2cc(n1)-c1cnn(C)c1OCCC[C@@H](C)CN1/C(=N/C2=O)Nc2ccc(N=S3(=O)CCNCC3)cc21 [WX-014] has a reported GI50 of 14.3

The recorded GI50 for entry Cc1cc2cc(n1)-c1cnn(C)c1OCCC[C@@H](C)CN1/C(=N/C2=O)Nc2ccc(N=S3(=O)CCC4(CC3)COC4)cc21 [WX-029] equals 5.5

response.value for Cc1cc2cc(n1)-c1cnn(C)c1OCCC[C@@H](C)CN1/C(=N/C2=O)Nc2ccc(N=S3(=O)CCC4(CCN(C)CC4)CC3)cc21 [WX-023] (field: GI50) = 2.7

Record summary for Cc1cc2cc(n1)-c1cnn(C)c1OCCC[C@@H](C)CN1/C(=N/C2=O)Nc2ccc(P(=O)(C(C)C)C(C)C)cc21 [WX-005 (trifluoroacetate)] : reported GI50 = 7.2

Notebook: Cc1cc2cc(n1)-c1cnn(C)c1OCCC[C@@H](C)CN1/C(=N/C2=O)Nc2ccc(N=S3(=O)CCC(N4CCN(C)CC4)CC3)cc21 (stereo partly drawn) [WX-026] , GI50 read as 11.6

Next molecule, please.
The measured GI50 associated with Cc1cc2cc(n1)-c1cnn(C)c1OCCC[C@@H](C)CN1/C(=N/C2=O)Nc2ccc(N=S3(=O)CC4(COC4)C3)cc21 [WX-025] reads 5.7

Source listed as patent US20250084097A1.
